Taken from BigSolDB 2.1.

conditions: in methyl acetate, 288.15 K

>  <chemical-string>
CC(=O)Nc1ccc(OC(=O)c2ccccc2OC(C)=O)cc1

>  <solubility (mole fraction)>
0.00164

$$$$

====

conditions: in n-propyl acetate, 283.15 K

>  <chemical-string>
CC(=O)Nc1ccc(OC(=O)c2ccccc2OC(C)=O)cc1

>  <solubility (mole fraction)>
0.000653

$$$$

====

conditions: in n-pentyl acetate, 288.15 K
observable: solubility (mole fraction)

>  <chemical-string>
CC(=O)Nc1ccc(OC(=O)c2ccccc2OC(C)=O)cc1

>  <result-value>
0.000509

$$$$

====

conditions: in n-pentyl acetate, 283.15 K

>  <chemical-string>
CC(=O)Nc1ccc(OC(=O)c2ccccc2OC(C)=O)cc1

>  <solubility (mole fraction)>
0.000392

$$$$

====

conditions: in DMSO, 303.15 K

>  <chemical-string>
CC(=O)Nc1ccc(OC(=O)c2ccccc2OC(C)=O)cc1

>  <solubility (mole fraction)>
0.0544

$$$$

====

conditions: in n-butyl acetate, 298.15 K
observable: solubility (mole fraction)

>  <chemical-string>
CC(=O)Nc1ccc(OC(=O)c2ccccc2OC(C)=O)cc1

>  <observable>
solubility (mole fraction)

>  <result-value>
0.00106

$$$$

====

conditions: in DMSO, 293.15 K

>  <chemical-string>
CC(=O)Nc1ccc(OC(=O)c2ccccc2OC(C)=O)cc1

>  <solubility (mole fraction)>
0.0385

$$$$

====

conditions: in DMAc, 303.15 K
observable: solubility (mole fraction)

>  <chemical-string>
CC(=O)Nc1ccc(OC(=O)c2ccccc2OC(C)=O)cc1

>  <result-value>
0.0875

$$$$

====

conditions: in DMAc, 308.15 K

>  <chemical-string>
CC(=O)Nc1ccc(OC(=O)c2ccccc2OC(C)=O)cc1

>  <solubility (mole fraction)>
0.0954

$$$$

====

conditions: in n-pentyl acetate, 298.15 K

>  <chemical-string>
CC(=O)Nc1ccc(OC(=O)c2ccccc2OC(C)=O)cc1

>  <solubility (mole fraction)>
0.000794

$$$$

====

conditions: in n-butyl acetate, 308.15 K

>  <chemical-string>
CC(=O)Nc1ccc(OC(=O)c2ccccc2OC(C)=O)cc1

>  <solubility (mole fraction)>
0.0016

$$$$

====

conditions: in n-propyl acetate, 323.15 K

>  <chemical-string>
CC(=O)Nc1ccc(OC(=O)c2ccccc2OC(C)=O)cc1

>  <solubility (mole fraction)>
0.00324

$$$$

====

conditions: in DMSO, 308.15 K

>  <chemical-string>
CC(=O)Nc1ccc(OC(=O)c2ccccc2OC(C)=O)cc1

>  <solubility (mole fraction)>
0.0637

$$$$

====

conditions: in n-propyl acetate, 318.15 K

>  <chemical-string>
CC(=O)Nc1ccc(OC(=O)c2ccccc2OC(C)=O)cc1

>  <solubility (mole fraction)>
0.00275

$$$$

====

conditions: in n-propyl acetate, 293.15 K
observable: solubility (mole fraction)

>  <chemical-string>
CC(=O)Nc1ccc(OC(=O)c2ccccc2OC(C)=O)cc1

>  <result-value>
0.00104

$$$$

====

conditions: in n-propyl acetate, 288.15 K

>  <chemical-string>
CC(=O)Nc1ccc(OC(=O)c2ccccc2OC(C)=O)cc1

>  <solubility (mole fraction)>
0.000831

$$$$

====

conditions: in n-butyl acetate, 318.15 K

>  <chemical-string>
CC(=O)Nc1ccc(OC(=O)c2ccccc2OC(C)=O)cc1

>  <solubility (mole fraction)>
0.00229

$$$$

====

conditions: in DMAc, 293.15 K

>  <chemical-string>
CC(=O)Nc1ccc(OC(=O)c2ccccc2OC(C)=O)cc1

>  <solubility (mole fraction)>
0.075

$$$$

====

conditions: in DMAc, 288.15 K

>  <chemical-string>
CC(=O)Nc1ccc(OC(=O)c2ccccc2OC(C)=O)cc1

>  <solubility (mole fraction)>
0.0687

$$$$

====

conditions: in n-pentyl acetate, 318.15 K
observable: solubility (mole fraction)

>  <chemical-string>
CC(=O)Nc1ccc(OC(=O)c2ccccc2OC(C)=O)cc1

>  <observable>
solubility (mole fraction)

>  <result-value>
0.0018

$$$$

====

conditions: in methyl acetate, 283.15 K
observable: solubility (mole fraction)

>  <chemical-string>
CC(=O)Nc1ccc(OC(=O)c2ccccc2OC(C)=O)cc1

>  <result-value>
0.00138

$$$$

====

conditions: in methyl acetate, 278.15 K

>  <chemical-string>
CC(=O)Nc1ccc(OC(=O)c2ccccc2OC(C)=O)cc1

>  <solubility (mole fraction)>
0.0011

$$$$

====

conditions: in n-propyl acetate, 278.15 K

>  <chemical-string>
CC(=O)Nc1ccc(OC(=O)c2ccccc2OC(C)=O)cc1

>  <solubility (mole fraction)>
0.00053

$$$$

====

conditions: in DMAc, 283.15 K

>  <chemical-string>
CC(=O)Nc1ccc(OC(=O)c2ccccc2OC(C)=O)cc1

>  <solubility (mole fraction)>
0.0623

$$$$

====

conditions: in DMSO, 313.15 K
observable: solubility (mole fraction)

>  <chemical-string>
CC(=O)Nc1ccc(OC(=O)c2ccccc2OC(C)=O)cc1

>  <observable>
solubility (mole fraction)

>  <result-value>
0.0743

$$$$

====

conditions: in methyl acetate, 303.15 K
observable: solubility (mole fraction)

>  <chemical-string>
CC(=O)Nc1ccc(OC(=O)c2ccccc2OC(C)=O)cc1

>  <observable>
solubility (mole fraction)

>  <result-value>
0.00289

$$$$

====

conditions: in methyl acetate, 308.15 K
observable: solubility (mole fraction)

>  <chemical-string>
CC(=O)Nc1ccc(OC(=O)c2ccccc2OC(C)=O)cc1

>  <observable>
solubility (mole fraction)

>  <result-value>
0.00344

$$$$

====

conditions: in n-butyl acetate, 283.15 K

>  <chemical-string>
CC(=O)Nc1ccc(OC(=O)c2ccccc2OC(C)=O)cc1

>  <solubility (mole fraction)>
0.000609

$$$$

====

conditions: in methyl acetate, 323.15 K

>  <chemical-string>
CC(=O)Nc1ccc(OC(=O)c2ccccc2OC(C)=O)cc1

>  <solubility (mole fraction)>
0.00602

$$$$

====

conditions: in n-pentyl acetate, 303.15 K

>  <chemical-string>
CC(=O)Nc1ccc(OC(=O)c2ccccc2OC(C)=O)cc1

>  <solubility (mole fraction)>
0.000983

$$$$

====

conditions: in n-butyl acetate, 293.15 K
observable: solubility (mole fraction)

>  <chemical-string>
CC(=O)Nc1ccc(OC(=O)c2ccccc2OC(C)=O)cc1

>  <observable>
solubility (mole fraction)

>  <result-value>
0.000899

$$$$

====

conditions: in DMSO, 323.15 K
observable: solubility (mole fraction)

>  <chemical-string>
CC(=O)Nc1ccc(OC(=O)c2ccccc2OC(C)=O)cc1

>  <result-value>
0.1

$$$$

====

conditions: in DMAc, 323.15 K

>  <chemical-string>
CC(=O)Nc1ccc(OC(=O)c2ccccc2OC(C)=O)cc1

>  <solubility (mole fraction)>
0.12

$$$$

====

conditions: in n-butyl acetate, 313.15 K

>  <chemical-string>
CC(=O)Nc1ccc(OC(=O)c2ccccc2OC(C)=O)cc1

>  <solubility (mole fraction)>
0.00189

$$$$

====

conditions: in DMAc, 318.15 K

>  <chemical-string>
CC(=O)Nc1ccc(OC(=O)c2ccccc2OC(C)=O)cc1

>  <solubility (mole fraction)>
0.112

$$$$

====

conditions: in n-butyl acetate, 323.15 K
observable: solubility (mole fraction)

>  <chemical-string>
CC(=O)Nc1ccc(OC(=O)c2ccccc2OC(C)=O)cc1

>  <observable>
solubility (mole fraction)

>  <result-value>
0.00272

$$$$

====

conditions: in DMSO, 318.15 K
observable: solubility (mole fraction)

>  <chemical-string>
CC(=O)Nc1ccc(OC(=O)c2ccccc2OC(C)=O)cc1

>  <observable>
solubility (mole fraction)

>  <result-value>
0.0865

$$$$

====

conditions: in methyl acetate, 293.15 K

>  <chemical-string>
CC(=O)Nc1ccc(OC(=O)c2ccccc2OC(C)=O)cc1

>  <solubility (mole fraction)>
0.00199

$$$$

====

conditions: in n-pentyl acetate, 293.15 K

>  <chemical-string>
CC(=O)Nc1ccc(OC(=O)c2ccccc2OC(C)=O)cc1

>  <solubility (mole fraction)>
0.000638

$$$$

====

conditions: in DMSO, 298.15 K

>  <chemical-string>
CC(=O)Nc1ccc(OC(=O)c2ccccc2OC(C)=O)cc1

>  <solubility (mole fraction)>
0.0463

$$$$

====

conditions: in n-propyl acetate, 303.15 K

>  <chemical-string>
CC(=O)Nc1ccc(OC(=O)c2ccccc2OC(C)=O)cc1

>  <solubility (mole fraction)>
0.00154

$$$$

====

conditions: in n-butyl acetate, 303.15 K

>  <chemical-string>
CC(=O)Nc1ccc(OC(=O)c2ccccc2OC(C)=O)cc1

>  <solubility (mole fraction)>
0.0013

$$$$

====

conditions: in n-pentyl acetate, 323.15 K
observable: solubility (mole fraction)

>  <chemical-string>
CC(=O)Nc1ccc(OC(=O)c2ccccc2OC(C)=O)cc1

>  <result-value>
0.00217

$$$$
